Value source: patent US12077503B2

System: barnyardgrass (Echinochloa crus-galli)
Assay: Test G Post-Emergence Protocol
Assay type: in vivo
Conditions: Echinochloa crus-galli, post-emergence, 312 h, 62.5 g ai/ha, evaluated after 13 days, 100=total damage to plant, 0=no damage to plant, read-out: Barnyardgrass damage rating
Attribute: pest or weed control at 62.5 g/ha
Kindly provide the numeric value in % only, without the unit symbol.

Past entries and their recorded results:
[[record]]
compound = "Cc1c(F)cccc1NC(=O)[C@@H]1C(=O)N(C)C[C@H]1c1cccc(OCC(F)(F)F)c1 (racemic) [Compound 1764]"
measured_target = "barnyardgrass (Echinochloa crus-galli)"
measured_parameter = "pest or weed control at 62.5 g/ha"
measurement = 50

[[record]]
compound = "Cc1cc(C)cc([C@H]2CN(C)C(=O)[C@@H]2C(=O)Nc2ccccc2S(C)(=O)=O)c1 (racemic) [Compound 1727]"
measured_target = "barnyardgrass (Echinochloa crus-galli)"
measured_parameter = "pest or weed control at 62.5 g/ha"
measurement = 70

[[record]]
compound = "Cc1nc(F)ccc1NC(=O)[C@@H]1C(=O)N(C)C[C@H]1c1ccc(C(F)(F)F)cc1 (racemic) [Compound 1654]"
measured_target = "barnyardgrass (Echinochloa crus-galli)"
measured_parameter = "pest or weed control at 62.5 g/ha"
measurement = 20

[[record]]
compound = "CN1C[C@@H](c2ccc(C(F)(F)F)cc2)[C@H](C(=O)Nc2cnc(Cl)cn2)C1=O (racemic) [Compound 1649]"
measured_target = "barnyardgrass (Echinochloa crus-galli)"
measured_parameter = "pest or weed control at 62.5 g/ha"
measurement = 0

[[record]]
compound = "CN1C[C@H](c2ccc(Cl)cc2)[C@@H](C(=O)Nc2ccc(F)nc2F)C1=O [Compound 1811]"
measured_target = "barnyardgrass (Echinochloa crus-galli)"
measured_parameter = "pest or weed control at 62.5 g/ha"
measurement = 80

[[record]]
compound = "COCCOc1cccc([C@@H]2CN(C)C(=O)[C@H]2C(=O)Nc2cccc(F)c2C)c1 (racemic) [Compound 1765]"
measured_target = "barnyardgrass (Echinochloa crus-galli)"
measured_parameter = "pest or weed control at 62.5 g/ha"
measurement = 30

[[record]]
compound = "CN1C[C@H](c2cccc(C(C)(C)C#N)c2)[C@@H](C(=O)Nc2ccccc2S(C)(=O)=O)C1=O (racemic) [Compound 1784]"
measured_target = "barnyardgrass (Echinochloa crus-galli)"
measured_parameter = "pest or weed control at 62.5 g/ha"
measurement = 0

[[record]]
compound = "CN1C[C@H](c2cc(Cl)cc(C(F)(F)F)c2)[C@@H](C(=O)Nc2ccccc2S(C)(=O)=O)C1=O (racemic) [Compound 1797]"
measured_target = "barnyardgrass (Echinochloa crus-galli)"
measured_parameter = "pest or weed control at 62.5 g/ha"
measurement = 70


// below: pest or weed control at 62.5 g/ha requested for another compound
In: Request the reported pest or weed control at 62.5 g/ha associated with COc1cc(Cl)cc(C2CN(C)C(=O)C2C(=O)Nc2cccc(F)c2F)c1 (stereo not drawn) [Compound 1690]
Out: 80

* * *

Attribute: pest or weed control at 15.625 g/ha
Tested on: barnyardgrass (Echinochloa crus-galli)
Experiment: Test G Post-Emergence Protocol
Format: in vivo
Conditions: Echinochloa crus-galli, post-emergence, 312 h, 15.625 g ai/ha, evaluated after 13 days (100=total damage to plant; 0=no damage to plant), read-out: Barnyardgrass damage rating
Kindly provide the numeric value in % only, without the unit symbol.

Past entries and their recorded results:
[[record]]
compound = "COc1ccc(CNC(=O)[C@H]2C(=O)N(C)C[C@@H]2c2ccc(C(F)(F)F)cc2)c(OC)c1 (racemic)"
measured_target = "barnyardgrass (Echinochloa crus-galli)"
measurement = 0

[[record]]
compound = "COc1cc(C2CN(C)C(=O)C2C(=O)Nc2cccc(F)c2F)cc(Cl)c1OC (stereo not shown)"
measured_target = "barnyardgrass (Echinochloa crus-galli)"
measurement = 40

[[record]]
compound = "COc1ccc(OC)c([C@H]2CN(C)C(=O)[C@@H]2C(=O)Nc2ccccc2F)c1 (racemic)"
measured_target = "barnyardgrass (Echinochloa crus-galli)"
measurement = 0


In: Request the reported pest or weed control at 15.625 g/ha associated with CN1C[C@@H](c2ccc(C(F)(F)F)cc2)[C@H](C(=O)Nc2ccnnc2)C1=O (racemic)
Out: 0

In: Request the reported pest or weed control at 15.625 g/ha associated with Cc1conc1NC(=O)[C@@H]1C(=O)N(C)C[C@H]1c1ccc(C(F)(F)F)cc1 (racemic)
Out: 0

In: Request the reported pest or weed control at 15.625 g/ha associated with Cc1c(F)cccc1NC(=O)[C@@H]1C(=O)N(C)C[C@H]1c1cc(Cl)c(F)c(Cl)c1 (racemic)
Out: 30

In: Request the reported pest or weed control at 15.625 g/ha associated with Cc1c(F)cccc1NC(=O)[C@@H]1C(=O)N(C)C[C@H]1c1cccc(OCC(F)(F)F)c1 (racemic)
Out: 40
